Molecular target: Serotonin 2-Receptor (Rattus norvegicus, UniProt P14842)
Construct: from tissue; host or cells: intact anesthetized SD-SLC male rat (vascular response)
Sequence (P14842 whole entry): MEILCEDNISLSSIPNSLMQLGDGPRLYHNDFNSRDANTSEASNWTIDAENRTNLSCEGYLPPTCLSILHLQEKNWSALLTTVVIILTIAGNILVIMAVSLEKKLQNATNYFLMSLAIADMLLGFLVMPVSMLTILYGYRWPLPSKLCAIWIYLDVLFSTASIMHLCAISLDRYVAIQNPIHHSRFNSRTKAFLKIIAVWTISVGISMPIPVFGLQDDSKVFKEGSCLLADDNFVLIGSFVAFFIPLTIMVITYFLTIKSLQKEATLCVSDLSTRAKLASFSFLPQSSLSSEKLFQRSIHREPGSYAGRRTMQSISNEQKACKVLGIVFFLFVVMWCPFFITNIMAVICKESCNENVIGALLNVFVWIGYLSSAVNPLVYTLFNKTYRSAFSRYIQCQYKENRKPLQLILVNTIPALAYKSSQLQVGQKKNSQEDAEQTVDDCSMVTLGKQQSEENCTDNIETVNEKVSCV
Assay: Antagonistic activity on serotonin 2-receptor: inhibition of the serotonin-induced increase in blood pressure in anesthetized rats
Type: in vivo
Conditions: SD-SLC male rat, 10 mg/kg p.o.; after 60 minutes from the administration; inhibition of blood pressure increase by serotonin 300 μg/kg i.v.
Where a name gives a salt, the structure may show the parent alone.
measured attribute: Antagonistic Activity 5-HT2 (%)
The reply should be a number in %, with the unit left off.

Solved entries (count: 2):
INSERT INTO results (molecule, measured_attribute, test_result) VALUES
  ('O=c1n(CCN2CCC(=C(c3ccc(F)cc3)c3ccc(F)cc3)CC2)nc2n1CCCCC2 [Example 34, Hydrochloride Hemihydrate]', 'Antagonistic Activity 5-HT2 (%)', 90),
  ('O=C(O)/C=C\C(=O)O.O=C(c1ccc(F)cc1)[C@@H]1CCN(CCn2nc3n(c2=O)CCCC3)C[C@H]1c1ccc(F)cc1 (relative stereo)', 'Antagonistic Activity 5-HT2 (%)', 90);

[ask] Quick one: Antagonistic Activity 5-HT2 (%) for O=c1n(CCN2CCC(=C(c3ccc(F)cc3)c3ccc(F)cc3)CC2)nc2n1CCCO2 [Example 44, Hydrochloride Hemihydrate] ?
[reply] 89
